Overview of recorded MIC for various compounds
tested on: Enterococcus faecalis; test: In vitro antibacterial activity against Enterococcus faecalis ATCC 29212 (E. f. 034) vancomycin sensitive; format: functional
Could you give me the number in µg/mL? Just the number is fine.

Study these solved cases before continuing.
INSERT INTO assay_data (entry_smiles, measurement) VALUES
  ('O=CNC[C@H]1CN(c2cc(F)c3c(c2)OC[C@@H]2CCCN32)C(=O)O1', 4),
  ('CC/C(S)=N\C[C@H]1CN(c2cc(F)c3c(c2)OC[C@@H]2CCCN32)C(=O)O1', 0.5);

Prompt line: Look up MIC: O=C(CC(F)(F)F)NC[C@H]1CN(c2cc(F)c3c(c2)OC[C@@H]2CCCN32)C(=O)O1
Response line: 4

Prompt line: Request the reported MIC associated with CCOC(=O)NC[C@H]1CN(c2cc(F)c3c(c2)OC[C@@H]2CCCN32)C(=O)O1
Response line: 8

----------
Examples of molecules with documented MIC follow.
system: Enterococcus faecalis; assay: In vitro antibacterial activity against Enterococcus faecalis NCTC 12201 (E. f. 153) vancomycin resistant; format: functional
Only the number, expressed in µg/mL, is required.

Before answering, review these 5 worked examples.
INSERT INTO measurements (entry_smiles, readout_kind, measurement) VALUES
  ('C/C(S)=N\C[C@H]1CN(c2cc(F)c3c(c2)OC[C@@H]2CCCN32)C(=O)O1', 'MIC', 1),
  ('CCCCC(=O)NC[C@H]1CN(c2cc(F)c3c(c2)OC[C@@H]2CCCN32)C(=O)O1', 'MIC', 16),
  ('O=C1O[C@@H](C/N=C/S)CN1c1cc(F)c2c(c1)OC[C@@H]1CCCN21', 'MIC', 1),
  ('C/N=C(\S)NC[C@H]1CN(c2cc(F)c3c(c2)OC[C@@H]2CCCN32)C(=O)O1', 'MIC', 4),
  ('O=C(CC(F)(F)F)NC[C@H]1CN(c2cc(F)c3c(c2)OC[C@@H]2CCCN32)C(=O)O1', 'MIC', 4);

Prompt line: What is its MIC for Enterococcus faecalis? Entry: CC(C)C(=O)NC[C@H]1CN(c2cc(F)c3c(c2)OC[C@@H]2CCCN32)C(=O)O1
Response line: 16

Prompt line: // fetch Enterococcus faecalis MIC for CC(C)C(=O)NC[C@H]1CN(c2ccc3c(c2)OC[C@@H]2CCCN32)C(=O)O1
Response line: 32

Prompt line: Can you look up MIC on Enterococcus faecalis for CCCC/C(S)=N\C[C@H]1CN(c2cc(F)c3c(c2)OC[C@@H]2CCCN32)C(=O)O1 ?
Response line: 2

----------
test system: Enterococcus faecalis; assay: In vitro antibacterial activity against Enterococcus faecalis ATCC 29212 (E. f. 034) vancomycin sensitive; assay type: functional
# MIC per record follows
Numeric answer only, unit mg/L assumed.

INSERT INTO results (entry_smiles, value_units, measurement) VALUES
  ('C/N=C(\S)NC[C@H]1CN(c2cc(F)c3c(c2)OC[C@@H]2CCCN32)C(=O)O1', 'mg/L', 2),
  ('C=CC(=O)NC[C@H]1CN(c2ccc3c(c2)OC[C@@H]2CCCN32)C(=O)O1', 'mg/L', 8),
  ('O=C1O[C@@H](C/N=C(/S)N2CCOCC2)CN1c1cc(F)c2c(c1)OC[C@@H]1CCCN21', 'mg/L', 16);

Prompt line: MIC lookup needed for COC(=O)NC[C@H]1CN(c2cc(F)c3c(c2)OC[C@@H]2CCCN32)C(=O)O1 , thanks.
Response line: 2
